Quick reference for EC50 among some compounds
measuredOn: Nitric oxide synthase 1 (Homo sapiens)
Sequence (P29475 whole entry): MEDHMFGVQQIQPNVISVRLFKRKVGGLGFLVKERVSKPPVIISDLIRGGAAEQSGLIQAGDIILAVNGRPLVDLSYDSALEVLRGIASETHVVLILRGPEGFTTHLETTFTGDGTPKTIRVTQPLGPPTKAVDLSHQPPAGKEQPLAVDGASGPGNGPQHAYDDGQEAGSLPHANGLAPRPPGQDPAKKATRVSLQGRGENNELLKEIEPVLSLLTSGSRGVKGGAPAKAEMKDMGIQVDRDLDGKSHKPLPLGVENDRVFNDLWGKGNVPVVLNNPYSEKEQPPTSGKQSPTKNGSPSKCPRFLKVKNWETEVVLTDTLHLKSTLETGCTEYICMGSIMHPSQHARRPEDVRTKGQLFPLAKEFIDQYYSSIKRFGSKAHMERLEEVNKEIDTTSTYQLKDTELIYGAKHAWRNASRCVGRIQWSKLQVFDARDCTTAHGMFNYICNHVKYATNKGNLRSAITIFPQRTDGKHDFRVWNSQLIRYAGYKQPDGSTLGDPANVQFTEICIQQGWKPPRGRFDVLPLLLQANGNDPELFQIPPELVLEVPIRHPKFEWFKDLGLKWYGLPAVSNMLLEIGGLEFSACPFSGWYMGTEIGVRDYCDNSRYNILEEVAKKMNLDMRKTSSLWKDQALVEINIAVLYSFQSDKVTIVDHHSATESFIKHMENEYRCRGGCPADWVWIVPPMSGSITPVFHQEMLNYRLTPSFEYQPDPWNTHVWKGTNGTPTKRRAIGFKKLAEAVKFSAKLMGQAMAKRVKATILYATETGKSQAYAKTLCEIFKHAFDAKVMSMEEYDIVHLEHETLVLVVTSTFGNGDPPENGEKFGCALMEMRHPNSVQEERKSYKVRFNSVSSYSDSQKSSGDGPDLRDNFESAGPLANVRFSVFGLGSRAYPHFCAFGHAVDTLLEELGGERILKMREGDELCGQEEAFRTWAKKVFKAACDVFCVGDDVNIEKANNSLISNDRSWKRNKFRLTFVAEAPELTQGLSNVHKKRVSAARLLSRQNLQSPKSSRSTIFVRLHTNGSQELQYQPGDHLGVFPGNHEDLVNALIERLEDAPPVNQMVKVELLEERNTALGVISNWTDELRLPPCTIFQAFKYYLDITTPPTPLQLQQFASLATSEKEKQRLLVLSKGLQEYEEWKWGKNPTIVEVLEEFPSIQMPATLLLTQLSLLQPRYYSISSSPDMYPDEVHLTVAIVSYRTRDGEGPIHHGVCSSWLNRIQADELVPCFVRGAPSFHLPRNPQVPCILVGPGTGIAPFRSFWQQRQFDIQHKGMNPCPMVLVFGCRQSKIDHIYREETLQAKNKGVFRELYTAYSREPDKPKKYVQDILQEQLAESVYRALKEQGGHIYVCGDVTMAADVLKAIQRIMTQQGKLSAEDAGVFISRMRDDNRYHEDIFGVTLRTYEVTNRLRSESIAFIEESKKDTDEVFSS
experimentalProtocol: Inhibition of human nNOS expressed in HEK293 cells assessed as NO production by transient transfection assay
observedProperty: EC50

[[record]]
molsmiles = "Cc1ncsc1C(=O)N(Cc1cc(=O)[nH]c2c(Cl)cccc12)c1cccc(Cl)c1"
measuredvalue = "> 10 µM"

[[record]]
molsmiles = "Cc1cccc(N(Cc2cc(=O)[nH]c3c(F)cccc23)C(=O)c2scnc2C)c1"
measuredvalue = "> 10 µM"

[[record]]
molsmiles = "Cc1ncccc1C(=O)N(Cc1cc(=O)[nH]c2c(F)cccc12)c1cccc(Cl)c1"
measuredvalue = "7.9 µM"

[[record]]
molsmiles = "Cc1ncsc1C(=O)N(Cc1cc(=O)[nH]c2cccc(F)c12)c1cccc(Cl)c1"
measuredvalue = "> 10 µM"

[[record]]
molsmiles = "Cc1ncsc1C(=O)N(Cc1cc(=O)[nH]c2c(F)cccc12)c1ccc(Cl)cc1"
measuredvalue = "> 10 µM"

[[record]]
molsmiles = "Cc1ncsc1C(=O)N(Cc1cc(=O)[nH]c2c(F)cccc12)c1ccccc1"
measuredvalue = "> 10 µM"

[[record]]
molsmiles = "Cc1ncsc1C(=O)N(Cc1cc(=O)[nH]c2c(F)cccc12)c1cccc(Cl)c1"
measuredvalue = "2.3 µM"

[[record]]
molsmiles = "COc1cccc(N(Cc2cc(=O)[nH]c3c(F)cccc23)C(=O)c2scnc2C)c1"
measuredvalue = "> 10 µM"

[[record]]
molsmiles = "Cc1noc(C)c1C(=O)N(Cc1cc(=O)[nH]c2c(F)cccc12)c1cccc(Cl)c1"
measuredvalue = "0.5 µM"

